Source of measurements: the supplement of paper PMC9112550

Test system: Escherichia coli TOP10
Assay info: shrunken log2 fold change of peptide-encoding DNA abundance (4.5 h post-induction vs induction); higher = less antimicrobial activity (less host growth inhibition)
Assay conditions: time post-induction: 4.5 h; library: site-saturation at positions 5, 18, 19, 20
Measured quantity: shrunken log2 fold change
Response field accepts a number only; no unit should be typed.

Exercise: Bench note: what shrunken log2 fold change did `RRIRWRPPRLPRPRPRPFDWPRP` show?
Key: 0.344

Exercise: // query shrunken log2 fold change value for entry `RRIRWRPPRLPRPRPRPTRLPRP`
Key: 0.411

Exercise: Need shrunken log2 fold change of `RRIRWRPPRLPRPRPRPHKSPRP` , thanks.
Key: 0.0767

Exercise: Entry `RRIRSRPPRLPRPRPRPGQTPRP` : reported shrunken log2 fold change = ?
Key: -0.0742

Exercise: Please give the measured shrunken log2 fold change for this sequence: `RRIRQRPPRLPRPRPRPLTLPRP`
Key: -0.104

Exercise: Sample `RRIRNRPPRLPRPRPRPCEYPRP` — what was its shrunken log2 fold change?
Key: -0.0196

Exercise: Query (sequence): `RRIRFRPPRLPRPRPRPTLLPRP` ; field requested: shrunken log2 fold change
Key: -0.0998

Exercise: Request the reported shrunken log2 fold change associated with `RRIRWRPPRLPRPRPRPVRGPRP`
Key: 0.538

Exercise: What measured shrunken log2 fold change goes with `RRIRSRPPRLPRPRPRPMCGPRP` ?
Key: -0.145

Exercise: Which shrunken log2 fold change reading was recorded for the sequence `RRIRKRPPRLPRPRPRPFPYPRP` ?
Key: -0.135

Exercise: Entry under review: `RRIRTRPPRLPRPRPRPPESPRP` . Reported shrunken log2 fold change?
Key: -0.0298

Exercise: What measured shrunken log2 fold change goes with `RRIRIRPPRLPRPRPRPFIVPRP` ?
Key: -0.105

Exercise: Give the measured shrunken log2 fold change of `RRIRHRPPRLPRPRPRPGACPRP` .
Key: 0.203

Exercise: // query shrunken log2 fold change value for entry `RRIRQRPPRLPRPRPRPNILPRP`
Key: -0.233

Exercise: What shrunken log2 fold change value was documented for this sequence, `RRIRRRPPRLPRPRPRPPEDPRP` ?
Key: 1.34

Exercise: I'd like to know its shrunken log2 fold change. The sequence in question is `RRIRTRPPRLPRPRPRPQMHPRP`
Key: -0.426

Exercise: For the sequence `RRIRCRPPRLPRPRPRPSQDPRP` , what shrunken log2 fold change is on record?
Key: 0.0757

Exercise: Field request: shrunken log2 fold change | item: `RRIRHRPPRLPRPRPRPSEDPRP`
Key: -0.00172

Exercise: Returns the measured shrunken log2 fold change for the input sequence. Input: `RRIRARPPRLPRPRPRPVTEPRP`
Key: 0.154

Exercise: So what's the measured shrunken log2 fold change for this one? `RRIRARPPRLPRPRPRPICYPRP`
Key: -0.0212

Exercise: Data request, read-out shrunken log2 fold change, for `RRIRRRPPRLPRPRPRPDMEPRP`
Key: -0.0393

Exercise: Entry `RRIRQRPPRLPRPRPRPLEIPRP` has what shrunken log2 fold change?
Key: -0.106

Exercise: Could you tell me which shrunken log2 fold change is on file for `RRIRHRPPRLPRPRPRPIYQPRP` ?
Key: -0.316

Exercise: May I ask what shrunken log2 fold change has been recorded for `RRIRGRPPRLPRPRPRPAVQPRP` ?
Key: 0.797

Exercise: Quick check: shrunken log2 fold change of `RRIRLRPPRLPRPRPRPTAEPRP` ?
Key: 0.16

Exercise: Field request: shrunken log2 fold change | item: `RRIRGRPPRLPRPRPRPFLLPRP`
Key: 0.206

Exercise: What measured shrunken log2 fold change goes with `RRIRVRPPRLPRPRPRPAFHPRP` ?
Key: -0.208

Exercise: Requested read-out: shrunken log2 fold change. Entry: `RRIRTRPPRLPRPRPRPFPGPRP`
Key: -0.21

Exercise: Query (sequence): `RRIRVRPPRLPRPRPRPYMYPRP` ; field requested: shrunken log2 fold change
Key: -0.588

Exercise: Could you tell me which shrunken log2 fold change is on file for `RRIRPRPPRLPRPRPRPNITPRP` ?
Key: -0.293

Exercise: Name the reported shrunken log2 fold change value associated with the sequence `RRIRYRPPRLPRPRPRPARWPRP`
Key: 0.135

Exercise: Item under review: `RRIRYRPPRLPRPRPRPLWKPRP` . Reported shrunken log2 fold change?
Key: -0.0695

Exercise: Reported shrunken log2 fold change, sequence `RRIRDRPPRLPRPRPRPGEEPRP` : ____
Key: 0.0844

Exercise: Recorded shrunken log2 fold change for `RRIRSRPPRLPRPRPRPQPPPRP` , please?
Key: 0.489

Exercise: For the sequence shown here, `RRIRRRPPRLPRPRPRPCGRPRP` , give the reported shrunken log2 fold change.
Key: -0.0337

Exercise: Suppose we examine the sequence `RRIRERPPRLPRPRPRPQHLPRP` ; what shrunken log2 fold change value has been reported?
Key: 0.0167

Exercise: So what's the measured shrunken log2 fold change for this one? `RRIRNRPPRLPRPRPRPIHEPRP`
Key: -0.00804

Exercise: For the sequence `RRIRLRPPRLPRPRPRPGTGPRP` , what shrunken log2 fold change is on record?
Key: -0.0967

Exercise: Return reported shrunken log2 fold change; argument: `RRIRKRPPRLPRPRPRPNARPRP`
Key: 0.076

Exercise: For the sequence shown here, `RRIRSRPPRLPRPRPRPSIMPRP` , give the reported shrunken log2 fold change.
Key: -0.196

Exercise: Looking for the measured shrunken log2 fold change of `RRIRARPPRLPRPRPRPWQEPRP` , can you help?
Key: -0.0122

Exercise: Requested read-out: shrunken log2 fold change. Entry: `RRIRARPPRLPRPRPRPWQWPRP`
Key: -0.00151

Exercise: Given the entry `RRIRFRPPRLPRPRPRPCFDPRP` , report its measured shrunken log2 fold change.
Key: -0.121

Exercise: Looking for the measured shrunken log2 fold change of `RRIRSRPPRLPRPRPRPWGLPRP` , can you help?
Key: 0.0137

Exercise: Could you tell me which shrunken log2 fold change is on file for `RRIRHRPPRLPRPRPRPLNLPRP` ?
Key: 0.00301

Exercise: Please report the recorded shrunken log2 fold change for `RRIRARPPRLPRPRPRPMLQPRP` .
Key: 0.454

Exercise: Param item = `RRIRVRPPRLPRPRPRPNRKPRP` ; retrieve measured shrunken log2 fold change.
Key: -0.0231

Exercise: Please look up its shrunken log2 fold change: `RRIRGRPPRLPRPRPRPGNCPRP`
Key: 0.131

Exercise: Given `RRIRMRPPRLPRPRPRPECGPRP` , state its recorded shrunken log2 fold change.
Key: 2.7

Exercise: Fill in: shrunken log2 fold change of `RRIRVRPPRLPRPRPRPTMHPRP` is ___
Key: -0.103

Exercise: What value of shrunken log2 fold change has been reported for the following sequence? `RRIRKRPPRLPRPRPRPRVNPRP`
Key: 0.0555

---

System: Escherichia coli TOP10;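 also: peptides expressed intracellularly from a pBAD plasmid library in pooled LB shake-flask culture, induced with 0.3% L-arabinose, DNA abundance read by NGS, three biological replicates, DESeq2 with apeglm shrinkage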
Assay info: shrunken log2 fold change of peptide-encoding DNA abundance (4.5 h post-induction vs induction); higher = less antimicrobial activity (less host growth inhibition)
Assay conditions: time post-induction: 4.5 h; library: site-saturation at positions 5, 18, 19, 20
Measured quantity: shrunken log2 fold change
# respond with the number and nothing more

Exercise: Return reported shrunken log2 fold change; argument: `RRIRERPPRLPRPRPRPVVIPRP`
Key: -0.251

Exercise: Param item = `RRIRDRPPRLPRPRPRPIRKPRP` ; retrieve measured shrunken log2 fold change.
Key: 0.0201

Exercise: Given the entry `RRIRARPPRLPRPRPRPYQKPRP` , report its measured shrunken log2 fold change.
Key: -0.0277

Exercise: Which shrunken log2 fold change value belongs to `RRIRRRPPRLPRPRPRPTCWPRP` ?
Key: 0.225

Exercise: Any idea what its shrunken log2 fold change is? The sequence is `RRIRWRPPRLPRPRPRPRELPRP`
Key: 0.642

Exercise: # input sequence: `RRIRRRPPRLPRPRPRPYRNPRP` ; wanted: its shrunken log2 fold change
Key: 0.0114

Exercise: Give its shrunken log2 fold change value. Item: `RRIRSRPPRLPRPRPRPVYDPRP`
Key: -0.227

Exercise: For `RRIRRRPPRLPRPRPRPPMPPRP` , what is its reported shrunken log2 fold change?
Key: 0.568

Exercise: Which shrunken log2 fold change reading was recorded for the sequence `RRIRNRPPRLPRPRPRPQNKPRP` ?
Key: -0.666

Exercise: Request the reported shrunken log2 fold change associated with `RRIRCRPPRLPRPRPRPKGAPRP`
Key: 0.492

Exercise: Any idea what its shrunken log2 fold change is? The sequence is `RRIRQRPPRLPRPRPRPDVYPRP`
Key: 0.0517

Exercise: Quick check: shrunken log2 fold change of `RRIRLRPPRLPRPRPRPRNDPRP` ?
Key: -0.142

Exercise: Entry `RRIRPRPPRLPRPRPRPQMAPRP` : reported shrunken log2 fold change = ?
Key: 0.129

Exercise: Which shrunken log2 fold change is reported for this sequence? `RRIRPRPPRLPRPRPRPGPMPRP`
Key: 0.293

Exercise: So what's the measured shrunken log2 fold change for this one? `RRIRKRPPRLPRPRPRPSVYPRP`
Key: -0.0427

Exercise: What value of shrunken log2 fold change has been reported for the following sequence? `RRIRDRPPRLPRPRPRPMFGPRP`
Key: 0.12

Exercise: # lookup: shrunken log2 fold change of `RRIRIRPPRLPRPRPRPRPGPRP`
Key: 0.618

Exercise: Which shrunken log2 fold change value belongs to `RRIRFRPPRLPRPRPRPDYRPRP` ?
Key: -0.0359

Exercise: Data request, read-out shrunken log2 fold change, for `RRIRSRPPRLPRPRPRPSSKPRP`
Key: -0.219

Exercise: Fill in: shrunken log2 fold change of `RRIRQRPPRLPRPRPRPERMPRP` is ___
Key: 0.0275

Exercise: Return reported shrunken log2 fold change; argument: `RRIRRRPPRLPRPRPRPRVLPRP`
Key: 0.349

Exercise: // returns reported shrunken log2 fold change for input `RRIRSRPPRLPRPRPRPQYYPRP`
Key: -0.29

Exercise: shrunken log2 fold change for `RRIRWRPPRLPRPRPRPCHAPRP` ?
Key: -0.253

Exercise: Recorded shrunken log2 fold change of `RRIRKRPPRLPRPRPRPDSGPRP` , please.
Key: -0.00213
